Test: Oral bioavailability in cynomolgus monkey at 0.5 mg/kg measured for 24 hrs by LC/MS/MS analysis
Assay type: ADME, organism-based, Macaca fascicularis
Conditions: in vivo
quantity: bioavailability
Returns: string containing the number followed by the unit.

Query: bioavailability; subject: Cc1c(-c2cc3cc(NC(=O)O[C@H]4COC[C@@H]4C)ncc3c(N)c2F)cnc2c1NCCO2
53%

* * *

Biological target: Voltage-dependent L-type calcium channel subunit alpha-1C (Homo sapiens)
Sequence (Q13936 whole entry): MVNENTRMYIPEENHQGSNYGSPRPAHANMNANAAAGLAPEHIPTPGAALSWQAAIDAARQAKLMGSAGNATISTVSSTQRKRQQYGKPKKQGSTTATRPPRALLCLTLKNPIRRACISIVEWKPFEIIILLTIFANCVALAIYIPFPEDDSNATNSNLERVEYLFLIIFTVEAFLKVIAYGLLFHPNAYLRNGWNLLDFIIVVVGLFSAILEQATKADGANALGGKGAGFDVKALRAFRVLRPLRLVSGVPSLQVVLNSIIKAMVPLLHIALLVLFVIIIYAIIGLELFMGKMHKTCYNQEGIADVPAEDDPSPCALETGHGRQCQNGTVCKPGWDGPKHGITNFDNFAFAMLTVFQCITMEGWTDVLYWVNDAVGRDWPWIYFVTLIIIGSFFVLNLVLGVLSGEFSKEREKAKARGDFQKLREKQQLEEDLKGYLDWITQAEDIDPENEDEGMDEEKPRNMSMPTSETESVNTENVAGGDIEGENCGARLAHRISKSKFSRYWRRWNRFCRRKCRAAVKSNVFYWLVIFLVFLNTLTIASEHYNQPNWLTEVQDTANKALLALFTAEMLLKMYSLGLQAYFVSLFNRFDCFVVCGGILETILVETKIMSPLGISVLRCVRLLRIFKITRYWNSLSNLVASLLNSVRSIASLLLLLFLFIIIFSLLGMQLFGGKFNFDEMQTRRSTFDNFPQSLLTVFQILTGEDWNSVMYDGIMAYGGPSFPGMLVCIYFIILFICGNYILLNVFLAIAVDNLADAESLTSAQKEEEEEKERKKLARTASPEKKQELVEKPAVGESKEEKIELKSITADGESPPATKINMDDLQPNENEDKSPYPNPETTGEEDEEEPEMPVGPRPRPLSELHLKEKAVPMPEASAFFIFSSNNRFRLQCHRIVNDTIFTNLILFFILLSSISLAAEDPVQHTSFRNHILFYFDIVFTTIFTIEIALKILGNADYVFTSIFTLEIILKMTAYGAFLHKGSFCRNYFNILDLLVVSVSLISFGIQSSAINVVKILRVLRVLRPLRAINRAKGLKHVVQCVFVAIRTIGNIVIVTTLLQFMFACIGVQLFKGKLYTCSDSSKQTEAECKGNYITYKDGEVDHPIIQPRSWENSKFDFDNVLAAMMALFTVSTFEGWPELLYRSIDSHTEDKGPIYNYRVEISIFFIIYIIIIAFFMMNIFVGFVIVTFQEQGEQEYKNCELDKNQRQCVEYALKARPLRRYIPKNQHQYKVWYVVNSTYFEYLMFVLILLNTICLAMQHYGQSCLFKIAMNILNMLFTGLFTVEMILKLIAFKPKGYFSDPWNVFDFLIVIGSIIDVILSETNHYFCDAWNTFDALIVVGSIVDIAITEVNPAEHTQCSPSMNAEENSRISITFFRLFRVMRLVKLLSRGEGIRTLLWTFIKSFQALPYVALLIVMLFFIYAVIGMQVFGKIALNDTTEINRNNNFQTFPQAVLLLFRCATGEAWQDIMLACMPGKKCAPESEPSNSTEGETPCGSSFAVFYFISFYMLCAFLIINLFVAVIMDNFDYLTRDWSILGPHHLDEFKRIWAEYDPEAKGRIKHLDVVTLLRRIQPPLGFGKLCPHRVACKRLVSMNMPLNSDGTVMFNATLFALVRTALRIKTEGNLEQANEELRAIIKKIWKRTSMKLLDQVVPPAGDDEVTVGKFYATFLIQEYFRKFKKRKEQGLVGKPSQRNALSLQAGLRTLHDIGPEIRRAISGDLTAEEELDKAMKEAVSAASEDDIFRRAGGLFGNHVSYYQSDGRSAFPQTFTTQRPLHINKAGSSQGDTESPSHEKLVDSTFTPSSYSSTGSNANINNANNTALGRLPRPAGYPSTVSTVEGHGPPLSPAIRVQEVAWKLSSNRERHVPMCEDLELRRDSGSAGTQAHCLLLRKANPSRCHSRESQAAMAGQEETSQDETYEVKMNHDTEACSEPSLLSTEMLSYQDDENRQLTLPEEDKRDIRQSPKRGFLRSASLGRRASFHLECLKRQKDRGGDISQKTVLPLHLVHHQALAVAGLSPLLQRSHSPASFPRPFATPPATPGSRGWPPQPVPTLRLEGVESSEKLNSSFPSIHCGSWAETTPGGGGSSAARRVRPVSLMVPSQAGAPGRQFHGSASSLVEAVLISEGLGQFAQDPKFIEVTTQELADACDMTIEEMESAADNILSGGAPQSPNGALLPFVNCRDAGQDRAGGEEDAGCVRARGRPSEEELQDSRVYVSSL
Assay: Inhibition of Cav1.2 (unknown origin)
pIC50: −log10 of the molar value.
quantity: pIC50

Quick check: pIC50 of Cc1c(-c2cc3cc(NC(=O)O[C@H]4COC[C@@H]4C)ncc3c(N)c2F)cnc2c1NCCO2 ?
< 5.00
